- measured.on: Transient receptor potential cation channel subfamily V member 1 (Homo sapiens, UniProt Q8NER1)
- Sequence (Q8NER1 whole entry): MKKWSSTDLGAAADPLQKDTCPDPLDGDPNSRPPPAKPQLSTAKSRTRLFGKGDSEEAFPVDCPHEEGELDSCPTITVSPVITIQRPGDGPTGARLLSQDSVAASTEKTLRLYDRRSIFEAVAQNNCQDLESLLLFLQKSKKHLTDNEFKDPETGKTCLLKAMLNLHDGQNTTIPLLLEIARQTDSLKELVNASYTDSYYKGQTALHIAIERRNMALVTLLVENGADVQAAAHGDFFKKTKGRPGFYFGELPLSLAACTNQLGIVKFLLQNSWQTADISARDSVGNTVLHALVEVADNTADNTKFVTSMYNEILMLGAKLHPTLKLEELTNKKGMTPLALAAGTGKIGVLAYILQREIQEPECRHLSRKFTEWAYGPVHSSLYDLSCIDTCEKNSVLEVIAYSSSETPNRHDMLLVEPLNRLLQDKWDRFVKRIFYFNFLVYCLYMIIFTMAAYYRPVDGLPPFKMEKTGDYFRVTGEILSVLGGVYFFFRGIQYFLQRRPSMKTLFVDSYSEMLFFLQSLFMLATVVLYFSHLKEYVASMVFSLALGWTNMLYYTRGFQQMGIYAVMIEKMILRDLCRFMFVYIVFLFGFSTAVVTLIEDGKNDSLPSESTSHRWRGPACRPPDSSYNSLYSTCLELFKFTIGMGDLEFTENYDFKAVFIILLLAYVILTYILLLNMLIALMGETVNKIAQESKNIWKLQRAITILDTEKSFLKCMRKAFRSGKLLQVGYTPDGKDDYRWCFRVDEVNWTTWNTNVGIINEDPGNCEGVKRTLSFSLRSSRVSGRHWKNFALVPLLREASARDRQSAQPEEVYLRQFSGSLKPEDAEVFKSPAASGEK
- method: Antagonist activity at human TRPV1 ion channel expressed in HEK293 cells assessed as inhibition of capsaicin-induced calcium influx incubated for 5 mins prior to capsicin-induction by fluo-4-AM-based fluorimetry
pIC50: −log10 of the molar value.
endpoint.label: pIC50

compound	val
CCCCCC(O)CC(=O)CCc1ccccc1 (configuration not stated)	< 4.30
O=C(CCc1ccccc1)CC(O)Cc1ccccc1 (configuration not stated)	< 4.30
CCCCCC(O)CC(=O)CCc1cc(C(C)C)c(O)c(C(C)C)c1 (configuration not stated)	< 4.30
CCCCCC(O)CC(=O)CCc1ccc2c(c1)OCO2 (configuration not stated)	< 4.00
O=C(CCc1ccc2c(c1)OCO2)CC(O)Cc1ccccc1 (configuration not stated)	< 4.30
O=C(CCc1ccccc1)CC(O)CCCCCCc1ccccc1 (configuration not stated)	< 5.00
O=C(CCc1ccc2c(c1)OCO2)CC(O)CCCCCCc1ccccc1 (configuration not stated)	< 5.00
